Target: T1, recombinant canine β NGF (canine, UniProt Q29074 110-229 (pig entry))
T1 construct: also called canine NGF
T1 chain: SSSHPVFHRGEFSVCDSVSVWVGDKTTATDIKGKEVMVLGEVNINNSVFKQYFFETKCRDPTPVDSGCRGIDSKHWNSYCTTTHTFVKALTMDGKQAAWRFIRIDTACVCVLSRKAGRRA
Assay: SPR (Biacore), mAb captured on goat anti-mouse IgG Fc, canine NGF injected; Expt 1
# maps each entry to its koff
Provide only the numeric value, understood in s⁻¹.

PR-1254980 (antibody, mouse IgG1, V domains shown, also called 23F1; ML129-23F1.4G3) VH: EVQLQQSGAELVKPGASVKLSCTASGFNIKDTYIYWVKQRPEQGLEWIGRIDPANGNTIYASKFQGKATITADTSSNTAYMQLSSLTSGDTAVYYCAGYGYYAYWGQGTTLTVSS VL: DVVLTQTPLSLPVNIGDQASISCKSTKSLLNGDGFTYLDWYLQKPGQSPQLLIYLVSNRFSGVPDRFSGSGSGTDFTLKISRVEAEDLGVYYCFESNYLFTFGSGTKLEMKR : 0.000237

q: Name the reported koff value associated with the binder PR-1254972 (antibody, mouse IgG2b, V domains shown, also called 20B10; ML129-20B10.3F4) VH: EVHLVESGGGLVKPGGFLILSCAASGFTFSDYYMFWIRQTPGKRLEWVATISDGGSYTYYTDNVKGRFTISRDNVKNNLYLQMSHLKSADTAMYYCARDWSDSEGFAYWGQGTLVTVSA VL: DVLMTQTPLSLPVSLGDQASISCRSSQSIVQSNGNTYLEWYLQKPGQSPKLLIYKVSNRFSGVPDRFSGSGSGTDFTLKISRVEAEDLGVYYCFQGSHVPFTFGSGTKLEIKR
a: 0.00314

q: Input PR-1254981 (antibody, mouse IgG1, V domains shown, also called 14A9; ML130-14A9.5B12) VH: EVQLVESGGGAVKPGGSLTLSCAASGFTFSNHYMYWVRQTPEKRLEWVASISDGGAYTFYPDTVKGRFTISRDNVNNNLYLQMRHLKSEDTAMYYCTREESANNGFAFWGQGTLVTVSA VL: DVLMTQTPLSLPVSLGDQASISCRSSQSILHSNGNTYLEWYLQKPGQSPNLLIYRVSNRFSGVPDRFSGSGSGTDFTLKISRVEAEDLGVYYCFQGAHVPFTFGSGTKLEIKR
a: 0.000127

q: Input PR-1254973 (antibody, mouse IgG2b, V domains shown, also called 2B12; ML129-2B12.5G9) VH: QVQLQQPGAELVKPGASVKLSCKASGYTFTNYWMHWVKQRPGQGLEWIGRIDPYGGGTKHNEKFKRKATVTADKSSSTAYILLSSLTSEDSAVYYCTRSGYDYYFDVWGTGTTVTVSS VL: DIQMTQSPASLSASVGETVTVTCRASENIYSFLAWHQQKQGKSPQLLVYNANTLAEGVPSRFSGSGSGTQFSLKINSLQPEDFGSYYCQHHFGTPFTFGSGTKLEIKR
a: 0.000121

q: Input PR-1254977 (antibody, mouse IgG1, V domains shown, also called 21D4; ML129-21D4.4A11) VH: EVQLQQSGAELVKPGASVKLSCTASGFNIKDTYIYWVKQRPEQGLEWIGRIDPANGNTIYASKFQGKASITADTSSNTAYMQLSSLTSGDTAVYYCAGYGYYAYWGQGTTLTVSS VL: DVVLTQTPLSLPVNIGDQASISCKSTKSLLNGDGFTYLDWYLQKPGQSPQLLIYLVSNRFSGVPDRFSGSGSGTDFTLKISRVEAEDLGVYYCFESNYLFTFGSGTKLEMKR
a: 0.000139
